# Test system: PRMT1 (protein arginine N-methyltransferase 1)
# assay-overview: small molecules binding arginine methyltransferase PRMT1 – biochemical, small-molecule microarray, 635 nm fluorescence, primary screen (AID 1088);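 further: binding of Prmt1 protein to compounds spotted on small-molecule microarray slides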
# measurement-setup: higher = more signal
parameter-measured: composite z-score

query: What measured composite z-score goes with CCCc1cc2c(n1Cc1ccc(C)cc1)C(C)C1CN(C(=O)c3ccccc3)C(C)(C(=O)OC)C21 (stereo not drawn) ?
result: 0.0451

query: Can you check COC(=O)[C@H]1[C@@H](O)[C@@]2(O)c3c(OC)cc(OC)cc3O[C@@]2(c2ccc(OC)cc2)[C@@H]1c1ccccc1 next?
result: 0.002

query: Now the same for C=C(CC1(CNP(=O)(c2ccccc2)c2ccccc2)CC1)c1ccccc1
result: -0.683

query: Next molecule up: OCc1ccc(C2=CC(C3CC3)N(Cc3sc4ccccc4c3Cl)CC2)cc1 (stereo not drawn)
result: 1.56

query: Quick one: CN1CCC(c2ccc(CO)cc2)=CC1c1cccs1 (stereo not drawn)
result: -0.534

query: Quick one: COC(=O)[C@H]1[C@H](c2ccccc2)C(=O)[C@]2(O)c3ccccc3O[C@@]12c1ccccc1
result: -0.371

query: Consider next the molecule CCCC[C@@H]1C[C@H]1[C@@H](NP(=O)(c1ccccc1)c1ccccc1)c1ccc(Cl)cc1 in the same way.
result: -0.571

query: Same lookup for C[C@@H]1Cc2c(cnc3c2CN(C)CC3)CO1 , please.
result: -0.377

query: Now the same for COC(=O)[C@@]1(Cc2ccccc2)[C@H]2c3cc(C(=O)N(C)C)n(C)c3C[C@H]2CN1C(=O)c1ccccc1
result: -0.0444

query: Same thing, different molecule: CCOC(=O)[C@H]1CC=C2C(=O)Oc3ccc(Br)cc3[C@@H]21
result: 1.41

query: Ok, now CCCc1cc2c(n1Cc1cccc(Cl)c1)C(C)C1CN(C(=O)c3ccccc3)C(C)(C(=O)OC)C21 (stereo not drawn)
result: -0.287

query: Param item: C[C@H]1O[C@H]2C3=C(C(=O)[C@@H]4O[C@@H]4[C@@H]3O)[C@@H]1[C@@H]1[C@@H](C)OC=C3[C@@H](O)[C@H]4O[C@H]4C(=O)[C@]312
result: -1.42

query: Another: CCOC(=O)[C@H]1CC=C2C(=O)Oc3ccccc3[C@@H]21
result: -0.162

query: Lookup CCCc1cc2c(n1CCO)C(C)C1CN(C(=O)c3ccccc3)C(C)(C(=O)OC)C21 (stereo not drawn)
result: -0.147

query: Proceed to O=P(c1ccccc1)(c1ccccc1)N1CC2(CC2)CC(O)(c2ccccc2)C1 (stereo not drawn)
result: -0.25

query: Now give it for COC(=O)[C@@]1(Cc2ccc(F)cc2)[C@H]2c3cc(C(=O)N(C)C)[nH]c3C[C@H]2CN1C(=O)c1ccccc1 too.
result: -0.128

query: Now consider COC(=O)C1(C)C=C2C(=C(C)C(=O)C2C)CN1 (stereo not drawn) .
result: -0.289

query: Try the molecule COC(=O)[C@@]1(Cc2ccccc2)[C@H]2c3cc(C(=O)N(C)C)[nH]c3C[C@H]2CN1C(=O)c1ccccc1
result: -0.94

###

# measurement-target: Calmodulin-1 (Homo sapiens)
# assay-overview: small molecules binding Ca-loaded calmodulin-1 – biochemical, small-molecule microarray, Cy5-labelled CALM1, plus calcium, artefact control for SMM control-protein annotation, profiling panel (AID 1112);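 further: score merges spot fluorescence with signal to noise from triplicate slides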
# measurement-setup: Cy5-CALM1 binding fluorescence, higher = more signal
Values of composite z-score greater than or equal to -0.4 map to true; values below map to false.

query: Given CCCC[C@@H]1C[C@H]1[C@@H](NP(=O)(c1ccccc1)c1ccccc1)c1ccc(Cl)cc1 , state whether its composite z-score is at least -0.4.
result: true

query: Try this compound too: COC(=O)[C@@]1(Cc2ccccc2)[C@H]2c3cc(C(=O)N(C)C)[nH]c3C[C@H]2CN1C(=O)c1ccccc1
result: true

query: Now consider C=C(CC1(C(C)NP(=O)(c2ccccc2)c2ccccc2)CC1)c1ccccc1 (stereo not given) and answer again.
result: true

query: Request: CCOC(=O)[C@H]1CC=C2C(=O)Oc3ccccc3[C@@H]21
result: false

query: And for COC(=O)[C@@]1(Cc2ccc(F)cc2)[C@H]2c3cc(C(=O)N(C)C)[nH]c3C[C@H]2CN1C(=O)c1ccccc1 ?
result: true

query: Also need CN1CCC(c2ccc(CO)cc2)=CC1C1CC1 (stereo not given) , thanks.
result: false

query: Proceed to CCCc1cc2c(n1Cc1ccco1)C(C)C1CN(C(=O)c3ccccc3)C(C)(C(=O)OC)C21 (stereo not given)
result: true

query: Could you do the same for CCCc1cc2c(n1Cc1cccc(Cl)c1)C(C)C1CN(C(=O)c3ccccc3)C(C)(C(=O)OC)C21 (stereo not given) , please?
result: true

query: Then what about the compound OCc1ccc(C2=CC(C3CC3)N(Cc3sc4ccccc4c3Cl)CC2)cc1 (stereo not given) ?
result: false

query: Proceed to CN1CCc2nc(CO)c(CO)cc2C1
result: false

query: Now the same for COC(=O)[C@@]1(Cc2ccccc2)[C@H]2c3cc(C(=O)N(C)C)n(C)c3C[C@H]2CN1C(=O)c1ccccc1
result: true

query: Try this compound next: C[C@H]1O[C@H]2C3=C(C(=O)[C@@H]4O[C@@H]4[C@@H]3O)[C@@H]1[C@@H]1[C@@H](C)OC=C3[C@@H](O)[C@H]4O[C@H]4C(=O)[C@]312
result: false

query: Try O=P(c1ccccc1)(c1ccccc1)N1CC2(CC2)CC(O)(c2ccccc2)C1 (stereo not given) next.
result: true
